# EXPERIMENT_DESCRIPTION: in vivo
# CONDITIONS_USED: male, ICR, mouse, in vivo, po, 30 mg/kg
PROPERTY_LABEL: Cmax (ng/mL)
One number for each entry, in ng/mL.

Record excerpt, results attached:
COMPOUND	Cmax [ng/mL]
C=CC(=O)N1CCCC(N(C)c2nc(Nc3ccc(N4CCOCC4)cc3)c3c(c2F)CNC3=O)C1 (stereo not drawn) [Compound G-71]	533
C=CC(=O)N1CC(Nc2nc(-c3cnn(C)c3)c3c(c2F)CNC3=O)CCC1C (stereo not drawn) [Compound G-26]	2400

Now look at this one.
q: Note down Cmax recorded for C=CC(=O)N1CCC[C@@H](Nc2nc(Nc3ccc(N4CCN(C5COC5)C[C@@H]4C)c(F)c3)c3c(c2F)CNC3=O)C1 [Compound G-91]
a: 2910

###

# EXPERIMENT_DESCRIPTION: in vivo
# CONDITIONS_USED: mouse, in vivo, po, 30 mg/kg
Hi there, I'd appreciate the recorded Maximum blood concentration Cmax for every entry that follows.
Answers are plain numbers, in ng/mL.

COMPOUND	TEST_RESULT
C=CC(=O)N1CCCC(Nc2nc(Nc3ccc(N4CCOCC4)cc3)c3c(c2F)CNC3=O)C1 (stereo not shown)	1240.0
C=CC(=O)N1CCCC(N(C)c2nc(-c3cnn(C)c3)c3c(c2F)CNC3=O)C1 (stereo not shown)	351.7
C=CC(=O)N1CCCC(Nc2nc(Nc3ccc(N4CCOCC4)c(F)c3)c3c(c2F)CNC3=O)C1 (stereo not shown)	964.0

q: Note down Maximum blood concentration Cmax recorded for C=CC(=O)N1CCCC(Nc2nc(Nc3ccc(N4CCOCC4C)cc3)c3c(c2F)CNC3=O)C1 (stereo not shown)
a: 837.7

###

# TARGET: BTK WT (Homo sapiens (Human))
# Sequence (Q06187 whole entry): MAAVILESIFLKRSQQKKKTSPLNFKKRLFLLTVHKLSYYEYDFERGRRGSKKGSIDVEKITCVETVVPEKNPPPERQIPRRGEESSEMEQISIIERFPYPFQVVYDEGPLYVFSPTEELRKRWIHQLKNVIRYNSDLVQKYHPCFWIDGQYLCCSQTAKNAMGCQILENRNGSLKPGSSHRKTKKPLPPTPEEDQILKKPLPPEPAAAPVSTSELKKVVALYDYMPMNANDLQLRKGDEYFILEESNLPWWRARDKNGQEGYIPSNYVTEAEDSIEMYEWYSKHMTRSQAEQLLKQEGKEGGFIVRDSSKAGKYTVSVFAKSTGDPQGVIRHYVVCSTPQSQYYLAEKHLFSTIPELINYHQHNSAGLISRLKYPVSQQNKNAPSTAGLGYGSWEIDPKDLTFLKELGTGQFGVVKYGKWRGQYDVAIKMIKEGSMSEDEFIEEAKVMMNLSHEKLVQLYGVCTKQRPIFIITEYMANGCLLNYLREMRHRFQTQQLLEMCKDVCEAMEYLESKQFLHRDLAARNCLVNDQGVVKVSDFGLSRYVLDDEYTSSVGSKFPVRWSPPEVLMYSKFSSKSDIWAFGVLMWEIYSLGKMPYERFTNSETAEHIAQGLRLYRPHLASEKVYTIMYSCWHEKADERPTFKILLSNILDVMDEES
Classify: Fulfilled when IC50 is strictly less than 6 nM; Not fulfilled when IC50 is not.

Previously resolved entries follow.
MOLECULE	LABEL
C=CC(=O)N1CCC[C@@H](Nc2nc(-c3cnn(C)c3)c3c(c2F)CNC3=O)C1	Not fulfilled
C=CC(=O)N1C[C@H](N(C)c2nc(Nc3ccc(N4CCOCC4)c(F)c3)c3c(c2F)CNC3=O)CC[C@@H]1C	Not fulfilled
C=CC(=O)N1CCCCC(N(C)c2nc(Nc3ccc(N4CCOCC4)cc3)c3c(c2F)CNC3=O)C1 (stereo not shown)	Fulfilled

q: Please let me know if C=CC(=O)N1CCCCC(Nc2nc(-c3cnn(C)c3)c3c(c2F)CNC3=O)C1 (stereo not shown) shows IC50 below 6 nM.
a: Not fulfilled

q: Please let me know if C=CC(=O)N1CCC[C@@H](Nc2nc(Nc3ccc(N4CCOC[C@@H]4C)cc3F)c3c(c2F)CNC3=O)C1 shows IC50 below 6 nM.
a: Fulfilled

q: Please let me know if C=CC(=O)N1CCCC(Nc2nc(Nc3ccc(N4CCN(C)CC4)nc3)c3c(c2F)CNC3=O)C1 (stereo not shown) shows IC50 below 6 nM.
a: Not fulfilled

###

# TARGET: BTK WT (Homo sapiens (Human))
Hi there, I'd appreciate the recorded pIC50 for every entry that follows.
Answers are plain numbers, as −log10 of the molar value.

COMPOUND	TEST_RESULT
C=CC(=O)N1C[C@H](Nc2nc(Nc3ccc(N4CCN(C5COC5)C[C@@H]4C)c(F)c3)c3c(c2F)CNC3=O)CC[C@@H]1C	8.30
C=CC(=O)N1CCCC(Nc2nc(Nc3cnn(C)c3)c3c(c2F)CNC3=O)C1 (centres unmarked) [Compound G-38]	8.70
C=CC(=O)N1CCCC(Nc2nc(Nc3ccc(N4CCOCC4=O)cc3)c3c(c2F)CNC3=O)C1 (centres unmarked)	8.70

Hi there! I need pIC50 for each item below, if you can.
1. C=CC(=O)N1CCCC(Nc2nc(Nc3ccc(N4CCOCC4)cc3F)c3c(c2F)CNC3=O)C1 (centres unmarked)
2. C=CC(=O)N1CC2CCN(c3nc(Nc4cnn(C)c4)c4c(c3F)CNC4=O)C2C1 (centres unmarked)

a:
1: 8.15; 2: 7.05

Hi there! I need pIC50 for each item below, if you can.
1. C=CC(=O)N1CC(Nc2nc(Nc3ccc(N4CCOCC4)c(F)c3)c3c(c2F)CNC3=O)CCC1C (centres unmarked)
2. C=CC(=O)N1CCC[C@H](Nc2nc(Nc3ccc(N4CCOCC4)cc3)c3c(c2F)CNC3=O)C1

a:
1: 8.70; 2: 7.47

q: Look up BTK WT (Homo sapiens (Human)) data: pIC50 of C=CC(=O)N1CCCCC(Nc2nc(Nc3ccc(OCCOC)cc3)c3c(c2F)CNC3=O)C1 (centres unmarked) , then report it.
a: 8.70

###

# TARGET: BTK WT (Homo sapiens (Human))
# EXPERIMENT_DESCRIPTION: Lantha screening kinase reaction, inhibition of BTK WT
# Assay type: biochemical
Hi there, I'd appreciate the recorded IC50 for every entry that follows.
One number for each entry, in nM.

Record excerpt, results attached:
COMPOUND	TARGET	IC50 / nM
C=CC(=O)N1CCCC(Nc2nc(Nc3cnn(C4CN(C)CC4F)c3)c3c(c2F)CNC3=O)C1 (centres unmarked)	BTK WT (Homo sapiens (Human))	3
C=CC(=O)N1CC(N(C)c2nc(-c3cnn(C)c3)c3c(c2F)CNC3=O)CCC1C (centres unmarked)	BTK WT (Homo sapiens (Human))	7
C=CC(=O)N1CCCC(Nc2nc(-c3cnn(C)c3)c3c(c2F)CNC3=O)C1C (centres unmarked)	BTK WT (Homo sapiens (Human))	62
C=CC(=O)N1CC(Nc2nc(Nc3ccc(N4CCOCC4)cc3)c3c(c2F)CNC3=O)CCC1C (centres unmarked)	BTK WT (Homo sapiens (Human))	5
C=CC(=O)N1CCC[C@@H](N(C)c2nc(-c3cnc(C)s3)c3c(c2F)CNC3=O)C1	BTK WT (Homo sapiens (Human))	20
C=CC(=O)N1C[C@H](N(C)c2nc(-c3cnn(C)c3)c3c(c2F)CNC3=O)CC[C@H]1C	BTK WT (Homo sapiens (Human))	18

Hi there! I need IC50 for each item below, if you can.
1. C=CC(=O)N1CC2CN(c3nc(Nc4cnn(C)c4)c4c(c3F)CNC4=O)CC2C1 (centres unmarked)
2. C=CC(=O)N1CCC[C@@H](N(C)c2nc(-c3c[nH]c(C)n3)c3c(c2F)CNC3=O)C1

a:
1: 0.8; 2: 8

###

wild-type EGFR kinase (Homo sapiens (Human), UniProt P00533) data, read-out pIC50
Sequence (P00533 25-1210): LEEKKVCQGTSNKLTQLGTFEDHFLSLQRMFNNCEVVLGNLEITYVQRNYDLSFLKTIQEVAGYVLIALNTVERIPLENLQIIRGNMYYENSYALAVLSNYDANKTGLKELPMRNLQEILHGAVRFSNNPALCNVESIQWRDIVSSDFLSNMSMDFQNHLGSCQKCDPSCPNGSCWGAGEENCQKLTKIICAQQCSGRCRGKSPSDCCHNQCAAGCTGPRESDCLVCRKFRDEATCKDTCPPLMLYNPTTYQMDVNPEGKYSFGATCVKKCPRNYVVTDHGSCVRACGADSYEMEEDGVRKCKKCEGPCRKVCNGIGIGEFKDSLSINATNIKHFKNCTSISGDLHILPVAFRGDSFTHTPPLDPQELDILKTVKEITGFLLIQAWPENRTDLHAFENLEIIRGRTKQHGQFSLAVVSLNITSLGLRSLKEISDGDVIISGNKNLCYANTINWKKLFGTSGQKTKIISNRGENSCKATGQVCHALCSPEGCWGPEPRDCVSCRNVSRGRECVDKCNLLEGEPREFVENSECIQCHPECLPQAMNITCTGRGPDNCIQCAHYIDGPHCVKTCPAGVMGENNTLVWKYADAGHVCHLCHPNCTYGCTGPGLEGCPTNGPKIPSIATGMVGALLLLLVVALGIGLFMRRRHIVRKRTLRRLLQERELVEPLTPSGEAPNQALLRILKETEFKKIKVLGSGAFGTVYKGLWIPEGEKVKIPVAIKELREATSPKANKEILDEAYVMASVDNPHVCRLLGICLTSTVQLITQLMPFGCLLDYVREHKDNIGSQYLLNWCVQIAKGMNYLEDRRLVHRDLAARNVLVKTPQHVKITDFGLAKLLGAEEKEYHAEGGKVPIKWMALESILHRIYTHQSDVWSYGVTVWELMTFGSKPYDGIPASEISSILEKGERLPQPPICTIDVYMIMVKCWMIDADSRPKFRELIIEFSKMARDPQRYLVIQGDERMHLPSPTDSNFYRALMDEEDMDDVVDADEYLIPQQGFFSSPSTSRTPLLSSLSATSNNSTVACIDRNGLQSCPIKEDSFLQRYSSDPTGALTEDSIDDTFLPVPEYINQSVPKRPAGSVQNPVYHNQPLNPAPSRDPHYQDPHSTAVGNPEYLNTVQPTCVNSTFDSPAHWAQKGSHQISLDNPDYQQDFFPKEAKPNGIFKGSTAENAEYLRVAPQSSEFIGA
Numbers only, as −log10 of the molar value.

COMPOUND	pIC50
C=CC(=O)N1CCCCC(Nc2nc(Nc3ccc(OCCOC)cc3)c3c(c2F)CNC3=O)C1 (stereo not shown)	5.64
C=CC(=O)N1CCCC(Nc2nc(Nc3cnn(C4CCOCC4)c3)c3c(c2F)CNC3=O)C1 (stereo not shown)	5.76
C=CC(=O)N1CCCC(Nc2nc(Nc3ccc(OCCOC)cc3)c3c(c2F)CNC3=O)CC1 (stereo not shown)	5.62

q: Look up wild-type EGFR kinase (Homo sapiens (Human), UniProt P00533) data: pIC50 of C=CC(=O)N1CCCC(Nc2nc(Nc3cnn(C4CN(C)CC4F)c3)c3c(c2F)CNC3=O)C1 (stereo not shown) , then report it.
a: 5.92

###

# TARGET: βBTK Y223 (Homo sapiens (Human))
# Sequence (Q06187 whole entry): as the sequence (Q06187 whole entry) above
# EXPERIMENT_DESCRIPTION: Intracellular βBTK Y223 phosphorylation HTRF in Ramos cells
PROPERTY_LABEL: pIC50
One number for each entry, as −log10 of the molar value.

Record excerpt, results attached:
COMPOUND	pIC50
C=CC(=O)N1CCCC(N(C)c2nc(-c3cnn(C(F)F)c3)c3c(c2F)CNC3=O)C1 (stereo not drawn)	7.30
C=CC(=O)N1CCCC(Nc2nc(Nc3cnn(C)c3)c3c(c2F)CNC3=O)C1 (stereo not drawn)	8.70
C=CC(=O)N1CCCC(Nc2nc3c(c(Nc4cnn(C)c4)n2)C(=O)NC3)C1 (stereo not drawn)	7.80
C=CC(=O)N1CCCC(Nc2nc(-c3cnn(C)c3)c3c(c2F)CNC3=O)C1 (stereo not drawn)	7.96
C=CC(=O)N1CCCC(Nc2nc(Nc3ccc(OCCOC)cc3)c3c(c2F)CNC3=O)CC1 (stereo not drawn)	7.64
C=CC(=O)N1CCCC(Nc2nc(Nc3cnn(C4CN(C)CC4F)c3)c3c(c2F)CNC3=O)C1 (stereo not drawn)	8.30

Hi there! I need pIC50 for each item below, if you can.
1. C=CC(=O)N1CCCC(Nc2nc(Nc3ccc(N4CCOCC4)cc3F)c3c(c2F)CNC3=O)C1 (stereo not drawn)
2. C=CC(=O)N1CCC(Nc2nc(Nc3ccc(OCCOC)cc3)c3c(c2F)CNC3=O)CC1

a:
1. 7.96
2. 7.54

Hi there! I need pIC50 for each item below, if you can.
1. C=CC(=O)N1CCCC(Nc2nc(Nc3ccc(N4CCOCC4=O)cc3)c3c(c2F)CNC3=O)C1 (stereo not drawn)
2. C=CC(=O)N1CCCC(Nc2nc(Nc3ccc(N4CCN(C)CC4)cn3)c3c(c2F)CNC3=O)C1 (stereo not drawn)
3. C=CC(=O)N1CCCC(N(C)c2nc(Nc3cc(C)ns3)c3c(c2F)CNC3=O)C1 (stereo not drawn)
4. C=CC(=O)N1CCCC(Nc2nc(Nc3ccc(N4CCN(C)CC4)cc3)c3c(c2F)CNC3=O)C1 (stereo not drawn)
5. C=CC(=O)N1CC2CN(c3nc(Nc4cnn(C)c4)c4c(c3F)CNC4=O)CC2C1 (stereo not drawn)
6. C=CC(=O)N1CCCC(Nc2nc(-c3cnn(C)c3)c3c(c2F)CNC3=O)C1C (stereo not drawn)
7. C=CC(=O)N1CCCCC(Nc2nc(Nc3ccc(N4CCOCC4)cc3)c3c(c2F)CNC3=O)C1 (stereo not drawn)

a:
1. 7.80
2. 7.10
3. 8.40
4. 8.70
5. 8.70
6. 7.10
7. 7.96
